System: Vero
Protocol Summary: Cytotoxicity against african green monkey Vero cells by trypan blue exclusion assay
Type: cell-based
Recorded Conditions: chlorocebus sabaeus
Measurement Name: Activity

A selection of reference data follows.
INPUT: Any idea what its Activity is? The molecule is CCCC[C@H](NC(=O)[C@H](CCCC)NC(=O)[C@H](CCC(N)=O)NC(=O)[C@H](CCCNC(=N)N)NC(=O)[C@H](CCCNC(=N)N)NC(=O)[C@H](CCCCN)NC(=O)[C@H](CCCCN)NC(=O)[C@H](CCCNC(=N)N)NC(=O)CNC(=O)CCCCCNC(=O)CCCC[C@@H]1SC[C@@H]2NC(=O)N[C@@H]21)C(=O)N[C@@H](CCCNC(=N)N)C(=O)N[C@@H](CS)C(=O)O
OUTPUT: Non-toxic

INPUT: Any idea what its Activity is? The molecule is N=C(N)NCCC[C@@H](NC(=O)CN)C(=O)N[C@H](CCCCN)C(=O)N[C@H](CCCCN)C(=O)N[C@H](CCCNC(=N)N)C(=O)N[C@H](CCCNC(=N)N)C(=O)N[C@H](CCC(N)=O)C(=O)N[C@H](CCCNC(=N)N)C(=O)N[C@H](CCCNC(=N)N)C(=O)N[C@H](CCCNC(=N)N)C(=O)N[C@H](CS)C(=O)O
OUTPUT: Non-toxic

INPUT: Any idea what its Activity is? The molecule is N=C(N)NCCC[C@H](NC(=O)[C@H](CCCNC(=N)N)NC(=O)[C@H](CCCNC(=N)N)NC(=O)[C@H](CCC(N)=O)NC(=O)[C@H](CCCNC(=N)N)NC(=O)[C@H](CCCNC(=N)N)NC(=O)[C@H](CCCCN)NC(=O)[C@H](CCCCN)NC(=O)[C@H](CCCNC(=N)N)NC(=O)CN)C(N)=O
OUTPUT: Non-toxic

INPUT: Any idea what its Activity is? The molecule is N=C(N)NCCC[C@@H](NC(=O)CN)C(=O)N[C@H](CCCCN)C(=O)N[C@H](CCCCN)C(=O)N[C@H](CCCNC(=N)N)C(=O)N[C@H](CCCNC(=N)N)C(=O)N[C@H](CCC(N)=O)C(=O)N[C@H](CCCNC(=N)N)C(=O)N[C@H](CCCNC(=N)N)C(=O)N[C@H](CCCNC(=N)N)C(=O)N1CCC[C@@H]1C(N)=O
OUTPUT: Non-toxic

INPUT: Any idea what its Activity is? The molecule is N=C(N)NCCC[C@@H](NC(=O)CNC(=O)CCCCCNC(=O)CCCC[C@@H]1SC[C@@H]2NC(=O)N[C@@H]21)C(=O)N[C@H](CCCCN)C(=O)N[C@H](CCCCN)C(=O)N[C@H](CCCNC(=N)N)C(=O)N[C@H](CCCNC(=N)N)C(=O)N[C@H](CCC(N)=O)C(=O)N[C@H](CCCNC(=N)N)C(=O)N[C@H](CCCNC(=N)N)C(=O)N[C@H](CCCNC(=N)N)C(=O)N[C@H](CS)C(=O)O
OUTPUT: Non-toxic

INPUT: Any idea what its Activity is? The molecule is CCCC[C@H](NC(=O)[C@H](CCCNC(=N)N)NC(=O)CN)C(=O)N[C@@H](CCCC)C(=O)N[C@@H](CCCNC(=N)N)C(=O)N[C@@H](CCCNC(=N)N)C(=O)N[C@@H](CCC(N)=O)C(=O)N[C@@H](CCCNC(=N)N)C(=O)N[C@@H](CCCNC(=N)N)C(=O)N[C@@H](CCCNC(=N)N)C(=O)N[C@@H](CS)C(N)=O
OUTPUT: Non-toxic

INPUT: Any idea what its Activity is? The molecule is N=C(N)NCCC[C@H](NC(=O)CNC(=O)CCCCCNC(=O)CCCC[C@@H]1SC[C@@H]2NC(=O)N[C@@H]21)C(=O)N[C@@H](CCCCN)C(=O)N[C@@H](CCCCN)C(=O)N[C@@H](CCCNC(=N)N)C(=O)N[C@@H](CCCNC(=N)N)C(=O)N[C@@H](CCC(N)=O)C(=O)N[C@@H](CCCNC(=N)N)C(=O)N[C@@H](CCCNC(=N)N)C(=O)N[C@@H](CCCNC(=N)N)C(=O)N[C@@H](CS)C(N)=O
OUTPUT: Non-toxic

Please examine the following record next.
INPUT: Any idea what its Activity is? The molecule is N=C(N)NCCC[C@@H](NC(=O)CN)C(=O)N[C@H](CCCCN)C(=O)N[C@H](CCCCN)C(=O)N[C@H](CCCNC(=N)N)C(=O)N[C@H](CCCNC(=N)N)C(=O)N[C@H](CCC(N)=O)C(=O)N[C@H](CCCNC(=N)N)C(=O)N[C@H](CCCNC(=N)N)C(=O)N[C@H](CCCNC(=N)N)C(=O)N[C@H](CS)C(N)=O
OUTPUT: Non-toxic
